molecular target: SEB (Staphylococcus aureus, UniProt P01552); design: species or system BALB/c mice; details: mouse, in vivo
value-type: mice surviving SEB challenge / group

1) WHAHPHKKPVVA [pd7]: 4/10
2) SPMLVAYD [p2TA]: 8/10
3) FHKHKNPGSPII [pc3]: 7/10
4) HVKGKHLCP (Synthetic peptide p1TA): 7/10

Challenge: Recorded mice surviving SEB challenge / group for SHFTHNRHGHST (Synthetic Peptide pe12) , please?
Response given: 8/10
